Reported IC50 is given for each of the following compounds.
- SYSTEM NAME: Recombinant human MAO-A (Homo sapiens)
- Construct: purchased Sigma-Aldrich (St. Louis, MO, USA)
- Sequence (P21397 1-527): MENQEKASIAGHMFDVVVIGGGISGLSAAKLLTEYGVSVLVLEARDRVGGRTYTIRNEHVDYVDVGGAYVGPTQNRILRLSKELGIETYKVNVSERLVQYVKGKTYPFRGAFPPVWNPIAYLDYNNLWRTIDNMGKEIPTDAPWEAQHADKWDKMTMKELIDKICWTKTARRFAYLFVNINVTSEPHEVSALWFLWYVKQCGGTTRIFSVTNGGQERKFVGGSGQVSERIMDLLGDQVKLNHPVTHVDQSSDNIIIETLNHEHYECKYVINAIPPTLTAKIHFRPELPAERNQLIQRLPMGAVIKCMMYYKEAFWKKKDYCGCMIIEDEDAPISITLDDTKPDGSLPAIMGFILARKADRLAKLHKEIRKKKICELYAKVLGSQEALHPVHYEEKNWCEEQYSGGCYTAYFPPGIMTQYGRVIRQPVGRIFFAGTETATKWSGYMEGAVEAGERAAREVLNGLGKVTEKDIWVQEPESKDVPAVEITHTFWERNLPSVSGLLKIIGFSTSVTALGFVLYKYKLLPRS
- ASSAY EXPLANATION: biochemical
- CONDITION LABEL: kynuramine 0.06 mM; highest concentration 40 µM; read-out: IC50 (µM) MAO-A
The answer is to be given in µM; state only the numeric part.

O=C(Cn1nc(N2CCN(c3cccc(C(F)(F)F)c3)CC2)ccc1=O)NN=Cc1ccc(Cl)cc1    12
COc1cccc(N2CCN(c3ccc(=O)n(CC(=O)NN=Cc4ccc(F)cc4)n3)CC2)c1    19.7

Ask: Quick one: IC50 for COc1ccc(C=NNC(=O)Cn2nc(N3CCN(c4cccc(C(F)(F)F)c4)CC3)ccc2=O)cc1 ?
Reply: 13.3

Ask: Endpoint output: IC50 of COc1ccc(C=NNC(=O)Cn2nc(N3CCN(c4cccc(OC)c4)CC3)ccc2=O)cc1 . Value?
Reply: 16.5

Ask: Item under review: COc1cccc(N2CCN(c3ccc(=O)n(CC(=O)NN=Cc4ccc(C)cc4)n3)CC2)c1 . Reported IC50?
Reply: 18.2
